Test system: SR leukemia
Experiment: NCI-60 one-dose screen, 48 h (100 = growth as untreated, 0 = no growth, -100 = all killed)
Settings: 10 µM unless noted
Procedure: Growth inhibition of the SR human tumor cell line is measured as a screen for anti-cancer activity. Cells are grown in 96 well plates and exposed to the test compound for 48 hours. Compounds are tested at a single concentration, which is 10^-5 M for most compounds. The reported endpoint is percent growth (GI% or GIPRCNT), where numbers from 0 - 100% represent growth inhibition, and numbers from -100% - 0 represent cell death. For example, a value of 40 represents 60% growth inhibition. […]
About 83,000 compounds went through this panel and 20% of them were active in at least one assay; those are over-represented in the sample as a whole.
Measured growth values are reported for all entries that follow.
Answer with a number only, understood to be in %.

Recorded growth, per entry:
NC/C(=C/F)COc1ccc2nc(NCc3cccnc3)oc2c1    101
O=C1CCCc2nc(Nc3ccc(S(=O)(=O)Nc4ccc([N+](=O)[O-])cc4)cc3)ncc21    105
CN1CCN(c2ccc(/C=N/n3cnc4oc(-c5ccccc5)cc4c3=N)cc2)CC1    36.6

What measured growth goes with O=[N+]([O-])c1cc(/C=N/Nc2nc(N/N=C/c3ccc(Cl)c([N+](=O)[O-])c3)nc(N3CCCCC3)n2)ccc1Cl ?
63.2

Which value of growth has been reported for COc1ccc2c(c1)c(CC(=O)[Se]CCC#N)c(C)n2C(=O)c1ccc(Cl)cc1 in the records?
4.36
